Numbers sourced from the supplement of paper PMC10567573.

B1: TRIM35 (parent)
chain: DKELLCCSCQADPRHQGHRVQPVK

- Variants of: B1
- assay-comment: protein stability index of a GFP-peptide fusion (GPS, HEK-293T) (PSI 1-6); higher = more stable;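 also: lentivirally expressed fusions sorted by FACS into six bins by GFP to DsRed ratio, PSI derived from sequencing read proportions per bin multiplied by bin number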
- recorded-conditions: c terminus: a fixed tail appended
readout-type: protein stability index
Keep it simple and answer with nothing but the number.

*Q* Determine its reported protein stability index: S8V
*A* 3.75

*Q* For the variant Q10I , give its measured protein stability index value.
*A* 3.87

*Q* # return recorded protein stability index for input D1K
*A* 3.46

*Q* Give the reported value of protein stability index for this record: D1E
*A* 4.13

*Q* Recall and state the measured protein stability index for S8Y .
*A* 2.97

*Q* Return value of protein stability index for input Q10K , no commentary.
*A* 3.8

*Q* Give protein stability index for Q16G
*A* 3.82

*Q* Specify protein stability index for K24M and stop.
*A* 3.29

*Q* Answer with the recorded protein stability index for the variant listed here: K24T
*A* 3.31

*Q* State its protein stability index for this variant: C7I
*A* 3.29

*Q* Identify measured protein stability index corresponding to L4P
*A* 3.85

*Q* Supply recorded protein stability index for G17S here.
*A* 3.66

*Q* Supply recorded protein stability index for P22R here.
*A* 3.4

*Q* Identify measured protein stability index associated with C6K
*A* 4.36

*Q* Input R19K , output reported protein stability index.
*A* 3.56

*Q* Please give measured protein stability index of the following entry: C7K
*A* 3.88

*Q* Given the variant E3G , write its reported protein stability index.
*A* 2.43

*Q* For the variant V20L , give its measured protein stability index value.
*A* 3.91

*Q* Quick one: give measured protein stability index for K2P
*A* 3.19

*Q* Answer with the recorded protein stability index of K24I only.
*A* 2.73

*Q* Write down protein stability index measured for item V20E
*A* 4.04

*Q* Report protein stability index for R14V
*A* 2.95

*Q* Give me measured protein stability index, please, for this variant: C7H
*A* 4.03

*Q* Give me measured protein stability index, please, for this variant: H18K
*A* 4.16

*Q* Look up and state reported protein stability index for C9R
*A* 4.42

*Q* Provide protein stability index value for the following variant: D1W
*A* 1.87

*Q* Indicate the recorded protein stability index value for this variant: Q10H
*A* 3.79

*Q* State its protein stability index for this variant: Q10T
*A* 4.04

*Q* State, in one line, measured protein stability index of K2I
*A* 2.84

*Q* For the variant K2R , give its measured protein stability index value.
*A* 3.12

*Q* Query protein stability index for V20H
*A* 4.69

*Q* Look up and report measured protein stability index for this entry: S8H
*A* 2.92

*Q* Note down protein stability index recorded for V23F
*A* 3.07

*Q* Please look at this variant and report its protein stability index: C6N
*A* 3.87

*Q* Please give the documented protein stability index of D1T
*A* 3.71

*Q* Supply measured protein stability index of V23C in your reply.
*A* 4

*Q* Give the reported protein stability index for this variant. R14K
*A* 3.37

*Q* Report protein stability index, nothing else, for this variant: R14H
*A* 3.69

*Q* // Input: C6Y . Output its protein stability index only.
*A* 3

*Q* Determine its reported protein stability index: E3W
*A* 1.93

*Q* Tell me measured protein stability index for Q16V please.
*A* 2.88

*Q* Provide protein stability index value for the following variant: Q10R
*A* 3.68

*Q* Determine its reported protein stability index: V20D
*A* 4.14

*Q* Hello, please tell me recorded protein stability index for this one: H15M
*A* 2.96

*Q* Provide only the value of recorded protein stability index for C6L
*A* 3.41

*Q* Return protein stability index (reported value) for this variant: A11S
*A* 3.67

*Q* Consider the variant C9T . State its measured protein stability index.
*A* 4.28

*Q* Check the records and state protein stability index for Q21L
*A* 3.15

*Q* Using known records, supply protein stability index for V23G
*A* 3.87

*Q* Find the measured protein stability index of D1Y and report it.
*A* 2.11

*Q* Identify the reported protein stability index for the following entry. Q21I
*A* 2.65

*Q* Give the value of protein stability index reported for the following: L5W
*A* 3.18

*Q* Note down protein stability index recorded for Q16L
*A* 3.43

*Q* Consider the variant D12K and give its recorded protein stability index.
*A* 3.81

*Q* For the variant L4W , give its measured protein stability index value.
*A* 2.68

*Q* Answer with the recorded protein stability index for the variant listed here: V20W
*A* 2.76

*Q* Check the records and state protein stability index for L4D
*A* 4.47

*Q* Name the recorded protein stability index of the variant listed here: Q16Y
*A* 2.57

*Q* For the variant P13D , give its reported protein stability index.
*A* 3.44

*Q* Provide measured protein stability index value, entry: Q16E
*A* 3.87

*Q* # return recorded protein stability index for entry A11Q
*A* 3.41

*Q* Look up and report measured protein stability index for this entry: C9P
*A* 4.89

*Q* For A11F , write its protein stability index.
*A* 4.14

*Q* Answer with the recorded protein stability index of R14N only.
*A* 4.13

*Q* Quickly give me recorded protein stability index for Q16M
*A* 2.66

*Q* Indicate the recorded protein stability index value for this variant: R14C
*A* 4.24

*Q* Could you please provide reported protein stability index for E3H ? Thanks!
*A* 2.47

*Q* Output measured protein stability index for this item: H18R
*A* 3.6

*Q* # return recorded protein stability index for entry D1M
*A* 3.67

*Q* Retrieve protein stability index measured for G17W and print it.
*A* 2.67

*Q* Entry H15D needs its protein stability index filled in; supply it.
*A* 4.23

*Q* Return protein stability index (reported value) for this variant: C6D
*A* 5.31

*Q* Name the recorded protein stability index of the item D12M in your answer.
*A* 2.72

*Q* Consider the variant Q10A . State its measured protein stability index.
*A* 3.41

*Q* Output measured protein stability index for this item: K2S
*A* 3.87

*Q* State its protein stability index for this variant: R14W
*A* 2.46

*Q* State, in one line, measured protein stability index of Q10P
*A* 3.91

*Q* Indicate the recorded protein stability index value for this variant: D1I
*A* 2.38

*Q* Consider the variant G17N and give its recorded protein stability index.
*A* 3.82

*Q* Hello, please tell me recorded protein stability index for this one: L5F
*A* 3.55

*Q* Return reported protein stability index. Input variant: V23W
*A* 2.19

*Q* Name the recorded protein stability index of the variant listed here: D12G
*A* 3.13

*Q* Return value of protein stability index for input L5H , no commentary.
*A* 3.91

*Q* Note protein stability index for the variant shown: L4V
*A* 4.33

*Q* For the variant C7F , report protein stability index.
*A* 3.38

*Q* Note protein stability index for the variant shown: L4E
*A* 3.41

*Q* Supply measured protein stability index of C7Q in your reply.
*A* 4.5

*Q* Query protein stability index for P22N
*A* 3.05

*Q* Read the entry K2D and write its reported protein stability index.
*A* 3.46

*Q* Give a short answer stating reported protein stability index for C7Y .
*A* 3.83

*Q* Find the measured protein stability index of P22I and report it.
*A* 3.04
